Tested on: Staph. aureus Russell
Test: MIC, serial dilution in nutrient agar, human bacteria
Assay type: cell-based
Conditions: Staphylococcus aureus; Staph. aureus Russell; nutrient agar containing 5% chocolated horse blood; read-out: M.I.C.
Documented MIC across a set of molecules
Expressed in µg/mL, but write only the number.

CCOC(=O)CCCCCNC(=O)C=C(C)CC1OCC(CC2OC2C(C)C(C)O)C(O)C1O (centres unmarked) : 50
C=CCNC(=O)C=C(C)CC1OCC(CC2OC2C(C)C(C)O)C(O)C1O (centres unmarked) [Example 8, Allylamide of monic acid A] : 100
COC(=O)CNC(=O)C=C(C)CC1OCC(CC2OC2C(C)C(C)O)C(O)C1O (centres unmarked) : 125

Reported MIC ( CC(=CC(=O)N(C)C)CC1OCC(CC2OC2C(C)C(C)O)C(O)C1O (centres unmarked) [Example 4, Dimethylamide of monic acid A] ) = 25

Reported MIC ( CNC(=O)C=C(C)CC1OCC(CC2OC2C(C)C(C)O)C(O)C1O (centres unmarked) [Example 2, N-Methylamide of monic acid A] ) = 25

Reported MIC ( CC(=CC(=O)N1CCOCC1)CC1OCC(CC2OC2C(C)C(C)O)C(O)C1O (centres unmarked) [Example 6, Morpholinyl amide of monic acid A] ) = 50

Reported MIC ( CC(=CC(N)=O)CC1OCC(CC2OC2C(C)C(C)O)C(O)C1O (centres unmarked) [Example 1, Primary amide of monic acid A] ) = 100

Reported MIC ( COC(=O)CCCCCCCCNC(=O)C=C(C)CC1OCC(CC2OC2C(C)C(C)O)C(O)C1O (centres unmarked) ) = 25
